Test system: HT29 colon
assay.details: NCI-60 one-dose screen, 48 h
cond: 10 µM unless noted
Compounds without any hit were thinned out: in the full panel of roughly 83,000, 20% have a hit. Calls of active or inactive are those of the source. The calls were made as follows: active = growth percent below 10; inactive = the rest.
API: response.call in 1 for active, 0 for inactive

Reference set (8 entries):
INSERT INTO assay_data (molecule, assay_target, qualitative_label) VALUES
  ('C/C(=N/NC(N)=S)c1ccc(C)cc1', 'HT29 colon', 0),
  ('c1ccc2sc(SSN3CC4CCC(CC4)C3)nc2c1', 'HT29 colon', 0),
  ('O=C(c1ccccc1)C(Br)C(Br)c1ccccc1 (stereo not drawn)', 'HT29 colon', 1),
  ('Cc1cc(I)nc2ccccc12', 'HT29 colon', 0),
  ('C[n+]1ccccc1C[n+]1ccccc1', 'HT29 colon', 0),
  ('O=C1/C(=C\c2ccc([N+](=O)[O-])cc2)CS(=O)(=O)C/C1=C/c1ccc([N+](=O)[O-])cc1', 'HT29 colon', 1),
  ('N#CC(I)CS(=O)(=O)c1ccccc1 (stereo not drawn)', 'HT29 colon', 0),
  ('S=C(S)OCN1CCOCC1', 'HT29 colon', 0);

Request: Could you check what this test reported for "O=C1C=CC(=O)N1C1CCCCCCCCCCC1" ?
Result: 0

Request: # outcome recorded in this test, key = "O=[n+]1c2ccccc2n([O-])c2cc(Cl)ccc21"
Result: 0

Request: Per the records of this test, what outcome belongs to CCCCC(CCc1ccc([N+](=O)[O-])cc1)(C(C)=O)C(=O)OCC (stereo not drawn) ?
Result: 0

Request: Assay result, entry "N=C(N)Sc1cccc[n+]1[O-]" — outcome?
Result: 0

Request: What is the recorded call for this molecule in the test? "N#CCc1cccc2ccccc12"
Result: 0
